Listing of recorded Initial Purity (Area %) by entry.
Assay: Solid state stability at 60° C. and 40° C./75% RH for 7 days (HPLC purity, XRPD)
Format: physicochemical
Settings: day 0, HPLC
experimental readout: Initial Purity (Area %)

Cc1nn(-c2cc(Cl)c(Oc3cc(C(C)C)c(=O)[nH]n3)c(Cl)c2)c(=O)[nH]c1=O [Free acid Form I]: 96.45 Area %
Cc1nn(-c2cc(Cl)c(Oc3cc(C(C)C)c(=O)[nH]n3)c(Cl)c2)c(=O)[n-]c1=O.[K+] [Potassium salt Form 1]: 99.23 Area %
Cc1nn(-c2cc(Cl)c(Oc3cc(C(C)C)c(=O)[nH]n3)c(Cl)c2)c(=O)[n-]c1=O.[Na+] [Sodium salt Form A]: 97.98 Area %
Cc1nn(-c2cc(Cl)c(Oc3cc(C(C)C)c(=O)[nH]n3)c(Cl)c2)c(=O)[n-]c1=O.[K+] [Potassium salt Form 2]: 99.04 Area %
